Biological target: TLR2/1 (Homo sapiens, UniProt O60603)
Sequence (O60603 21-784): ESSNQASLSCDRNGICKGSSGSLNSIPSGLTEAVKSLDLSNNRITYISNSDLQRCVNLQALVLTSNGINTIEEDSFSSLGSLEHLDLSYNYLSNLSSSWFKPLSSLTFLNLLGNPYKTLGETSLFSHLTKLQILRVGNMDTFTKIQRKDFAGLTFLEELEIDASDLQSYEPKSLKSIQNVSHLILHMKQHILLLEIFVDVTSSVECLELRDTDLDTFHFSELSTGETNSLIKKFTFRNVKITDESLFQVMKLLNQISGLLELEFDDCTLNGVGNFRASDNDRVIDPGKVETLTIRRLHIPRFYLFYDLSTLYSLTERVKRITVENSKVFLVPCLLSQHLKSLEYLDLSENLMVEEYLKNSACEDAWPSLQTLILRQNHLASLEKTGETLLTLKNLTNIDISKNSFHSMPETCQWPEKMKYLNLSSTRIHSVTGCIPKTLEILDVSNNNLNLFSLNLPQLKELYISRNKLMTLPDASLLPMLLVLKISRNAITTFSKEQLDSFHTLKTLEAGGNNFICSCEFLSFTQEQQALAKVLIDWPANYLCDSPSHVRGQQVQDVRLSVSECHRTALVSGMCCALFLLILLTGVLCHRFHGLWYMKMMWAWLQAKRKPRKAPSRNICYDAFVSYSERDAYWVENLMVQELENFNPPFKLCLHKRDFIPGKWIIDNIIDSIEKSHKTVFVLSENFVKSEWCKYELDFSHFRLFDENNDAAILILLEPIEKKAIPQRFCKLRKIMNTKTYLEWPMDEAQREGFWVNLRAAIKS
Assay: TLR2/1 (Pam3CSK4)-induced NF-κB/AP-1 SEAP reporter in HEK-Blue hTLR2 cells
Settings: Pam3CSK4 10 ng/mL, HEK-Blue hTLR2 cells, n=3; 95 % confidence interval in brackets
IC50 by entry:
Answer with the figure and its unit, nothing else.

Below, each entry is followed by its recorded IC50 result.
compound: CCOC(=O)c1cccc(NC(=O)c2cc(O)cc(O)c2)c1 [Compound 6]
tested-target: TLR2/1 (Homo sapiens, UniProt O60603)
IC50: 15.4 µM

compound: COC(=O)c1ccc(CC(=O)c2ccc(O)cc2O)o1 [Compound 9]
tested-target: TLR2/1 (Homo sapiens, UniProt O60603)
IC50: 42.4 µM

compound: CCOC(=O)c1cccc(NC(=O)Cc2ccc(OC)c(OC)c2)c1 [Compound 4]
tested-target: TLR2/1 (Homo sapiens, UniProt O60603)
IC50: 44.9 µM

Ask: Provide IC50, tested on TLR2/1 (Homo sapiens, UniProt O60603), for CCOC(=O)c1ccc(CC(=O)c2c(C)cc(O)cc2O)o1 [Compound 10] .
Result: 44 µM
